Here the recorded Percentage of hemolysis at 256 μg/mL is given for each entry.
# Test system: human red blood cells (RBCs)
# Test Protocol: Hemolysis assay
# Format: cell-based
# Experimental Parameters: red cells of human, 1 h, 256
Where a SMILES comes first, the peptide text is derived from it.
Output spec: scalar in %, unitless text.

molecule="CC[C@H](C)[C@H](NC(=O)[C@H](C)NC(=O)[C@H](CCCCN)NC(=O)[C@@H](NC(=O)[C@@H](NC(=O)[C@H](CC(=O)O)NC(=O)[C@H](Cc1ccccc1)NC(=O)[C@H](CC(C)C)NC(=O)CN)[C@@H](C)CC)[C@@H](C)CC)C(=O)N[C@@H](C)C(=O)N[C@@H](CCC(=O)O)C(=O)N[C@@H](CO)C(=O)N[C@@H](Cc1ccccc1)C(N)=O [Peptide K8A] (H-GLFDIIKAIAESF-NH2)" measurement_name="Percentage of hemolysis at 256 μg/mL" result=89.6

Now consider the entry below.
Q) Please give the measured Percentage of hemolysis at 256 μg/mL for this molecule: CC[C@H](C)[C@H](NC(=O)[C@H](CCCCN)NC(=O)[C@H](CCCCN)NC(=O)[C@@H](NC(=O)[C@@H](NC(=O)[C@H](CC(=O)O)NC(=O)[C@H](Cc1ccccc1)NC(=O)[C@H](CC(C)C)NC(=O)[C@H](C)N)[C@@H](C)CC)[C@@H](C)CC)C(=O)N[C@@H](C)C(=O)N[C@@H](CCC(=O)O)C(=O)N[C@@H](CO)C(=O)N[C@@H](Cc1ccccc1)C(N)=O [Peptide G1A] (H-ALFDIIKKIAESF-NH2)
A) 4.2
